Recorded values, source ChEMBL document CHEMBL1127495.

- assay-system: UniProt:P08254
- assay-explanation: In vitro inhibition of recombinant stromelysin catalytic domain.
pIC50: −log10 of the molar value.
readout-label: pIC50

>  <molecule>
O=C(N[C@H](Cc1ccccc1)C(=O)O)OCc1ccccc1

>  <assay-system>
UniProt:P08254

>  <readout-label>
pIC50

>  <value-operator>
<

>  <observed-value>
3.30

$$$$
>  <molecule>
Cc1cc(C)c(S(=O)(=O)n2cc(C[C@H](NC(=O)OC(C)(C)C)C(=O)O)c3ccccc32)c(C)c1

>  <assay-system>
UniProt:P08254

>  <readout-label>
pIC50

>  <value-operator>
=

>  <observed-value>
4.20

$$$$
>  <molecule>
O=C(N[C@@H](Cc1ccc(O)cc1)C(=O)O)OCc1ccccc1

>  <assay-system>
UniProt:P08254

>  <readout-label>
pIC50

>  <value-operator>
=

>  <observed-value>
4.62

$$$$
>  <molecule>
NC(=O)[C@H](Cc1ccc(O)cc1)NC(=O)OCc1ccccc1

>  <assay-system>
UniProt:P08254

>  <readout-label>
pIC50

>  <value-operator>
<

>  <observed-value>
3.30

$$$$
>  <molecule>
CC(C)(C)OC(=O)N[C@H](Cc1ccc(O)cc1)C(=O)O

>  <assay-system>
UniProt:P08254

>  <readout-label>
pIC50

>  <value-operator>
<

>  <observed-value>
3.30

$$$$
>  <molecule>
CC(=O)N[C@@H](Cc1ccc(O)cc1)C(=O)O

>  <assay-system>
UniProt:P08254

>  <readout-label>
pIC50

>  <value-operator>
<

>  <observed-value>
3.30

$$$$
>  <molecule>
O=C(N[C@@H](Cc1c[nH]c2ccccc12)C(=O)ON1C(=O)CCC1=O)OCc1ccccc1

>  <assay-system>
UniProt:P08254

>  <readout-label>
pIC50

>  <value-operator>
=

>  <observed-value>
4.89

$$$$
>  <molecule>
O=C(N[C@@H](Cc1ccccc1)C(=O)O)OCc1ccccc1

>  <assay-system>
UniProt:P08254

>  <readout-label>
pIC50

>  <value-operator>
=

>  <observed-value>
4.40

$$$$
>  <molecule>
CC(C)(C)OC(=O)N[C@@H](Cc1cn(C=O)c2ccccc12)C(=O)O

>  <assay-system>
UniProt:P08254

>  <readout-label>
pIC50

>  <value-operator>
=

>  <observed-value>
4.47

$$$$
>  <molecule>
CC(C)(C)OC(=O)N[C@@H](Cc1c[nH]c2ccccc12)C(=O)O

>  <assay-system>
UniProt:P08254

>  <readout-label>
pIC50

>  <value-operator>
=

>  <observed-value>
5.00

$$$$

* * *

- assay-system: Stromelysin-1 (Homo sapiens, UniProt P08254)
- Sequence (P08254 whole entry, the tested form may be a part): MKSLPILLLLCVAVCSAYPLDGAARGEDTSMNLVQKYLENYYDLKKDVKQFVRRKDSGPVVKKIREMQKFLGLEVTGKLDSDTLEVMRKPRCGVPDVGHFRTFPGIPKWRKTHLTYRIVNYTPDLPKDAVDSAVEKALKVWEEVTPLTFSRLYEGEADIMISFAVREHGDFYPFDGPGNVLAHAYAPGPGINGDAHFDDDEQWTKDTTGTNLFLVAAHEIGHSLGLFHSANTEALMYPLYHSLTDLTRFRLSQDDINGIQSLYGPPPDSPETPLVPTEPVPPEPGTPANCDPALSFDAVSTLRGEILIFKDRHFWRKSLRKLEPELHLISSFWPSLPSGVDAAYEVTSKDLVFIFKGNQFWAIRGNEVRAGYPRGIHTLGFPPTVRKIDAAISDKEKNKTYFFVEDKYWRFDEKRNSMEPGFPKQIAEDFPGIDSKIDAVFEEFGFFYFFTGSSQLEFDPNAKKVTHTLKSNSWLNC
- assay-explanation: Inhibition of full length stromelysin isolated from cultured human cells (FLS).
Known IC50 of a selection of compounds

>  <molecule>
O=C(N[C@@H](Cc1ccc(O)cc1)C(=O)O)OCc1ccccc1

>  <value-operator>
=

>  <IC50, µM>
22

$$$$
>  <molecule>
O=C(N[C@@H](Cc1ccccc1)C(=O)O)OCc1ccccc1

>  <value-operator>
=

>  <IC50, µM>
99

$$$$
>  <molecule>
O=C(N[C@H](Cc1ccc(O)cc1)C(=O)O)OCc1ccccc1

>  <value-operator>
=

>  <IC50, µM>
450

$$$$
>  <molecule>
O=C(N[C@H](Cc1ccccc1)C(=O)O)OCc1ccccc1

>  <value-operator>
>

>  <IC50, µM>
500

$$$$

* * *

- assay-system: Stromelysin-1 (Homo sapiens, UniProt P08254)
- assay-explanation: In vitro inhibition of recombinant stromelysin catalytic domain.

>  <molecule>
NNC(=O)[C@H](Cc1ccc(O)cc1)NC(=O)OCc1ccccc1

>  <unit-info>
µM

>  <value-operator>
>

>  <IC50>
500

$$$$
>  <molecule>
N[C@@H](Cc1c[nH]c2ccccc12)C(=O)O

>  <unit-info>
µM

>  <value-operator>
>

>  <IC50>
500

$$$$
>  <molecule>
CC(C)(C)OC(=O)N[C@@H](Cc1c[nH]c2ccccc12)C(=O)ON1C(=O)CCC1=O

>  <unit-info>
µM

>  <value-operator>
=

>  <IC50>
102

$$$$
>  <molecule>
O=C(N[C@@H](Cc1c[nH]c2ccccc12)C(=O)O)OCC1c2ccccc2-c2ccccc21

>  <unit-info>
µM

>  <value-operator>
=

>  <IC50>
500

$$$$
>  <molecule>
O=C(/C=C/c1ccco1)N[C@@H](Cc1c[nH]c2ccccc12)C(=O)O

>  <unit-info>
µM

>  <value-operator>
=

>  <IC50>
145

$$$$
>  <molecule>
CC(=O)N[C@H](Cc1ccc(O)cc1)C(=O)O

>  <unit-info>
µM

>  <value-operator>
>

>  <IC50>
500

$$$$
>  <molecule>
N[C@H](Cc1c[nH]c2ccccc12)C(=O)O

>  <unit-info>
µM

>  <value-operator>
>

>  <IC50>
500

$$$$
>  <molecule>
O=C(N[C@H](Cc1ccc(O)cc1)C(=O)O)OCc1ccccc1

>  <unit-info>
µM

>  <value-operator>
=

>  <IC50>
432

$$$$

* * *

- assay-system: Stromelysin-1 (Homo sapiens)
- assay-explanation: Inhibition of full length stromelysin isolated from cultured human cells (FLS)
readout-label: Ki

>  <molecule>
O=C(N[C@@H](Cc1ccccc1)C(=O)O)OCc1ccccc1

>  <readout-label>
Ki

>  <observed-value>
83 µM

$$$$
>  <molecule>
O=C(N[C@@H](Cc1ccc(O)cc1)C(=O)O)OCc1ccccc1

>  <readout-label>
Ki

>  <observed-value>
18 µM

$$$$
>  <molecule>
O=C(N[C@H](Cc1ccc(O)cc1)C(=O)O)OCc1ccccc1

>  <readout-label>
Ki

>  <observed-value>
377 µM

$$$$
